Biological target: HCV NS3/4A protease genotype 1b (Hepatitis C virus genotype 1b, UniProt P26663)
Sequence (P26663 1027-1657): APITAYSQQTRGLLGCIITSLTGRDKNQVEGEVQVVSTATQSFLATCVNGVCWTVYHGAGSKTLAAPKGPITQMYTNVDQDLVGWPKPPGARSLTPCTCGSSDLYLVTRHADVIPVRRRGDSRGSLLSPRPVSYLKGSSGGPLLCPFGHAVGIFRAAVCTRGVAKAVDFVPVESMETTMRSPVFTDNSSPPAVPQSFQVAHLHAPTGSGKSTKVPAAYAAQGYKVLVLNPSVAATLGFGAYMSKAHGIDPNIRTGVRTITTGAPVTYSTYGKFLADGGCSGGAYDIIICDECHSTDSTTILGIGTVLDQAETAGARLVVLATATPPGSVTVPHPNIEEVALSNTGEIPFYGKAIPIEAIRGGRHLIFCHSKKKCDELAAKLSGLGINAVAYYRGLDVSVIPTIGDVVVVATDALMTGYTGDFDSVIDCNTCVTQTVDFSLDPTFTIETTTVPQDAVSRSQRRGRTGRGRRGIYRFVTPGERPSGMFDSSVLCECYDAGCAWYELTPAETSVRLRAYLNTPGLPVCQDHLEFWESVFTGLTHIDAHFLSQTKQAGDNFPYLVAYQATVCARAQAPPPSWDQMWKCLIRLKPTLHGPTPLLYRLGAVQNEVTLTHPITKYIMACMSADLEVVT
Sequence (P26663 1658-1711): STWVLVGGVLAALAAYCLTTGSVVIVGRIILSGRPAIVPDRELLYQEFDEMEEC
Test: HCV NS3/4A protease time-resolved fluorescence (TRF) assay, Ki against genotype 1b
Type: biochemical
Conditions: IC50 [gt-1b] (nM), NS3/4A genotype 1b, enzyme 0.2 nM

{"compound structure string": "COc1ccc2nc(C(F)(F)F)c3c(c2c1)CC[C@]1(C[C@H]2C(=O)N[C@]4(C(=O)NS(=O)(=O)C5(C)CC5)C[C@H]4/C=C\\CCCCC[C@H](NC(=O)OC4(C)CC4)C(=O)N2C1)O3", "uom": "nM", "IC50": 0.013}
{"compound structure string": "COCCC(C)(C)OC(=O)N[C@H]1CCCCC/C=C\\[C@@H]2C[C@@]2(C(=O)NS(=O)(=O)C2(C)CC2)NC(=O)[C@@H]2C[C@@]3(CN2C1=O)CC(F)(F)c1c(c(C(C)C)nc2ccc(OC)cc12)O3", "uom": "nM", "IC50": 0.008}
{"compound structure string": "Cc1nc2ccccc2c2c1O[C@]1(CC2)C[C@H]2C(=O)N[C@]3(C(=O)NS(=O)(=O)C4(C)CC4)C[C@H]3/C=C\\CCCCC[C@H](NC(=O)OC(C)(C(F)(F)F)C(F)(F)F)C(=O)N2C1", "uom": "nM", "IC50": 0.019}

###

Molecular target: HCV NS3/4A protease genotype 1b (Hepatitis C virus genotype 1b, UniProt P26663)
Test: HCV NS3/4A protease time-resolved fluorescence (TRF) assay, Ki against genotype 1b
Type: biochemical
Conditions: IC50 [gt-1b] (nM), NS3/4A genotype 1b, enzyme 0.2 nM
IC50 for assorted compounds

{"compound": "Cc1nc2ccccc2c2c1O[C@@]1(C[C@H]3C(=O)N[C@]4(C(=O)NS(=O)(=O)C5(C)CC5)C[C@H]4/C=C\\CCCCC[C@H](NC(=O)OC(C)(C)C)C(=O)N3C1)CC2(F)F", "uom": "nM", "IC50": 0.016}
{"compound": "CCc1ccc2nc(C)c3c(c2c1)C(F)C[C@]1(C[C@H]2C(=O)N[C@]4(C(=O)NS(=O)(=O)C5(C)CC5)C[C@H]4/C=C\\CCCCC[C@H](NC(=O)OC(C)(C)C(F)(F)F)C(=O)N2C1)O3 (single isomer, unassigned) [Example 346]", "uom": "nM", "IC50": 0.012}
{"compound": "Cc1nc2ccccc2c2c1O[C@]1(CC2)C[C@H]2C(=O)N[C@]3(C(=O)NS(=O)(=O)C4(C)CC4)C[C@H]3/C=C\\CCCCC[C@H](NC(=O)OCCF)C(=O)N2C1", "uom": "nM", "IC50": 0.031}
{"compound": "COc1ccc2nc(C3CC3)c3c(c2c1)CC[C@]1(C[C@H]2C(=O)N[C@]4(C(=O)NS(=O)(=O)C5(C)CC5)C[C@H]4/C=C\\CCCCC[C@H](NC(=O)OC4CCCC4)C(=O)N2C1)O3", "uom": "nM", "IC50": 0.009}
{"compound": "Cc1ccc2nc(C)c3c(c2c1)CC[C@]1(C[C@H]2C(=O)N[C@]4(C(=O)NS(=O)(=O)C5CC5)C[C@H]4/C=C\\CCCCC[C@H](NC(=O)OC(C)(C)C)C(=O)N2C1)O3", "uom": "nM", "IC50": 0.01}
